Quick list: protein stability index per entry.
B1: PPFIA4 (parent)
chain: VMTLPSDLRKHRRKLLSPVSREEN

- Variants of: B1
- protocol.summary: protein stability index of a GFP-peptide fusion (GPS, HEK-293T) (PSI 1-6); higher = more stable;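 note: lentivirally expressed fusions sorted by FACS into six bins by GFP to DsRed ratio, PSI derived from sequencing read proportions per bin multiplied by bin number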
- run.conditions: c terminus: a fixed tail appended
// no unit, no text: just the number

# variant.notation, protein stability index
measured = [
    ("K14E", 4.07),
    ("P18M", 3.83),
    ("R21L", 3.84),
    ("K10T", 4.02),
]

For the next question, use this variant.
Exercise: Return reported protein stability index; argument: L4E
Key: 4.37
